meta.source: patent US10738056B2

TGT: Human cGAS amino acids 155-522 (Homo sapiens (Human))
PROTOCOL: cGAS biochemical activity assay (ATP remaining, Kinase-Glo Max luminescence)
PARTICULARS: human cGAS 155-522, ATP remaining (Kinase-Glo Max); read-out: cGAS IC50
Recorded measurements of IC50, one per entry

{"MOLECULE": "CCOC(=O)c1coc(-c2c(C)[nH]c3c(-c4ccccc4)c(C(F)(F)F)nn3c2=O)n1", "TGT": "Human cGAS amino acids 155-522 (Homo sapiens (Human))", "IC50": "< 20 µM"}
{"MOLECULE": "COc1cccc2oc(-c3c(C(N)=O)[nH]c4c(-c5ccccc5)c(C(F)(F)F)nn4c3=O)nc12", "TGT": "Human cGAS amino acids 155-522 (Homo sapiens (Human))", "IC50": "< 20 µM"}
{"MOLECULE": "Cc1[nH]c2c(-c3ccccc3)c(C(F)(F)F)nn2c(=O)c1-c1nnc(C2COCCN2)o1 (stereo not shown)", "TGT": "Human cGAS amino acids 155-522 (Homo sapiens (Human))", "IC50": "20 to 250 µM"}
{"MOLECULE": "Cc1[nH]c2c(-c3ccccc3)c(C(F)(F)F)nn2c(=O)c1C(=O)Nc1ccon1", "TGT": "Human cGAS amino acids 155-522 (Homo sapiens (Human))", "IC50": "20 to 250 µM"}
{"MOLECULE": "Cc1[nH]c2c(-c3ccccc3)c(C(F)(F)F)nn2c(=O)c1-c1nnc(N2CCCCC2CN)o1 (stereo not shown)", "TGT": "Human cGAS amino acids 155-522 (Homo sapiens (Human))", "IC50": "< 20 µM"}
{"MOLECULE": "COCCn1ccc(NC(=O)c2c(C)[nH]c3c(-c4ccccc4)c(C(F)(F)F)nn3c2=O)n1", "TGT": "Human cGAS amino acids 155-522 (Homo sapiens (Human))", "IC50": "20 to 250 µM"}
{"MOLECULE": "Cc1[nH]c2c(-c3ccccc3)c(C(F)(F)F)nn2c(=O)c1C(=O)Nc1cc(Br)cc(CN(C)C)c1", "TGT": "Human cGAS amino acids 155-522 (Homo sapiens (Human))", "IC50": "< 20 µM"}

====

TGT: Human cGAS amino acids 155-522 (Homo sapiens (Human))
PROTOCOL: cGAS biochemical activity assay (ATP remaining, Kinase-Glo Max luminescence)
PARTICULARS: human cGAS 155-522, ATP remaining (Kinase-Glo Max); read-out: cGAS IC50
pIC50: −log10 of the molar value.
Collected pIC50 values appear next to each entry.
READOUT TYPE: pIC50

{"COMPOUND": "COc1cccc2oc(-c3c(C)[nH]c4c(-c5cccnc5)c(C(F)(F)F)nn4c3=O)nc12", "VALUE OBSERVED": "3.60 to 4.70"}
{"COMPOUND": "COc1ccc(-c2nnc(-c3c(C)[nH]c4c(-c5ccccc5)c(C(F)(F)F)nn4c3=O)o2)cc1", "VALUE OBSERVED": "< 3.60"}
{"COMPOUND": "COc1cccc2oc(-c3c(C4CCC(CO)C4)[nH]c4c(-c5ccccc5)c(C(F)(F)F)nn4c3=O)nc12 (centres unmarked)", "VALUE OBSERVED": "> 4.70"}
{"COMPOUND": "COc1cccc2oc(-c3c(C(=O)NCC(C)(C)O)[nH]c4c(-c5ccccc5)c(C(F)(F)F)nn4c3=O)nc12", "VALUE OBSERVED": "> 4.70"}
{"COMPOUND": "COC(=O)[C@@H]1COC(c2c(C)[nH]c3c(-c4ccccc4)c(C(F)(F)F)nn3c2=O)=N1", "VALUE OBSERVED": "> 4.70"}
{"COMPOUND": "COc1c(Cl)cccc1NC(=O)c1c(C)[nH]c2c(-c3ccccc3)c(C(F)(F)F)nn2c1=O", "VALUE OBSERVED": "3.60 to 4.70"}
{"COMPOUND": "COC1CCCN(c2nnc(-c3c(C)[nH]c4c(-c5ccccc5)c(C(F)(F)F)nn4c3=O)o2)C1 (centres unmarked)", "VALUE OBSERVED": "> 4.70"}
{"COMPOUND": "Cc1[nH]c2c(-c3ccccc3)c(C(F)(F)F)nn2c(=O)c1-c1nc(CO)c(C2CCCCC2)o1", "VALUE OBSERVED": "> 4.70"}
{"COMPOUND": "CC(=O)N1CCOCC1c1nnc(-c2c(C)[nH]c3c(-c4ccccc4)c(C(F)(F)F)nn3c2=O)o1 (centres unmarked)", "VALUE OBSERVED": "3.60 to 4.70"}
{"COMPOUND": "Cc1[nH]c2c(-c3ccccc3)c(C(F)(F)F)nn2c(=O)c1C(=O)Nc1ccnnc1", "VALUE OBSERVED": "3.60 to 4.70"}
{"COMPOUND": "Cc1[nH]c2c(-c3ccccc3)c(C(F)(F)F)nn2c(=O)c1C(=O)Nc1cccc2c1OCC2", "VALUE OBSERVED": "> 4.70"}
{"COMPOUND": "Cc1[nH]c2c(-c3ccccc3)c(C(F)(F)F)nn2c(=O)c1-c1nnc(C2CCCOC2)o1 (centres unmarked)", "VALUE OBSERVED": "3.60 to 4.70"}
{"COMPOUND": "CO[C@](c1ccccc1)(c1nnc(-c2c(C)[nH]c3c(-c4ccccc4)c(C(F)(F)F)nn3c2=O)o1)C(F)(F)F", "VALUE OBSERVED": "> 4.70"}
{"COMPOUND": "COCc1[nH]c2c(-c3ccccc3)c(C#N)nn2c(=O)c1-c1nc2c(OC)cccc2o1", "VALUE OBSERVED": "> 4.70"}
{"COMPOUND": "COc1cccc2oc(-c3c(C)[nH]c4c(-c5ccc(C)cc5)c(C(F)(F)F)nn4c3=O)nc12", "VALUE OBSERVED": "3.60 to 4.70"}
{"COMPOUND": "COc1cccc2oc(-c3c(CO)[nH]c4c(-c5ccccc5)c(C(F)(F)F)nn4c3=O)nc12", "VALUE OBSERVED": "> 4.70"}
{"COMPOUND": "Cc1[nH]c2c(-c3ccccc3)c(C(F)(F)F)nn2c(=O)c1-c1nnc(C2(C(F)(F)F)CC2)o1", "VALUE OBSERVED": "> 4.70"}
{"COMPOUND": "Cc1[nH]c2c(-c3ccccc3)c(C(F)(F)F)nn2c(=O)c1-c1ncco1", "VALUE OBSERVED": "> 4.70"}
{"COMPOUND": "Cc1[nH]c2c(-c3ccccc3)c(C(F)(F)F)nn2c(=O)c1-c1nc2c(o1)CCCC2=O", "VALUE OBSERVED": "> 4.70"}
{"COMPOUND": "Cc1[nH]c2c(-c3ccccc3)c(C(F)(F)F)nn2c(=O)c1-c1nnc(-c2cccc(O)n2)o1", "VALUE OBSERVED": "> 4.70"}
{"COMPOUND": "Cc1[nH]c2c(-c3ccccc3)c(C(F)(F)F)nn2c(=O)c1C(=O)Nc1nc(C2CC2)cs1", "VALUE OBSERVED": "> 4.70"}
{"COMPOUND": "Cc1cccc(-c2c(C)[nH]c3c(-c4ccccc4)c(C(F)(F)F)nn3c2=O)c1", "VALUE OBSERVED": "3.60 to 4.70"}
{"COMPOUND": "Cc1[nH]c2c(-c3ccccc3)c(C(F)(F)F)nn2c(=O)c1-c1nn(C(C)C)c(=O)o1", "VALUE OBSERVED": "> 4.70"}
{"COMPOUND": "COc1cccc2c1CN(c1c(C)[nH]c3c(-c4ccccc4)c(C(F)(F)F)nn3c1=O)C2=O", "VALUE OBSERVED": "3.60 to 4.70"}
{"COMPOUND": "COc1cccc(NC(=O)c2c(C)[nH]c3c(-c4ccccc4)c(C4CC4)nn3c2=O)c1", "VALUE OBSERVED": "< 3.60"}
{"COMPOUND": "COc1cccc2nc(-c3c(C)[nH]c4c(-c5ccccc5)c(C(F)(F)F)nn4c3=O)oc12", "VALUE OBSERVED": "> 4.70"}
{"COMPOUND": "COCCOc1cccc2oc(-c3c(C)[nH]c4c(-c5ccccc5)c(C(F)(F)F)nn4c3=O)nc12", "VALUE OBSERVED": "> 4.70"}
{"COMPOUND": "COc1cccc2oc(-c3c(COC4COC4)[nH]c4c(-c5ccccc5)c(C#N)nn4c3=O)nc12", "VALUE OBSERVED": "> 4.70"}
{"COMPOUND": "Cc1[nH]c2c(-c3ccccc3)c(C(F)(F)F)nn2c(=O)c1C(=O)Nc1ccn(CCO)n1", "VALUE OBSERVED": "3.60 to 4.70"}

====

IC50 by entry:
TGT: Human cGAS amino acids 155-522 (Homo sapiens (Human), UniProt Q8N884)
Sequence (Q8N884 157-522): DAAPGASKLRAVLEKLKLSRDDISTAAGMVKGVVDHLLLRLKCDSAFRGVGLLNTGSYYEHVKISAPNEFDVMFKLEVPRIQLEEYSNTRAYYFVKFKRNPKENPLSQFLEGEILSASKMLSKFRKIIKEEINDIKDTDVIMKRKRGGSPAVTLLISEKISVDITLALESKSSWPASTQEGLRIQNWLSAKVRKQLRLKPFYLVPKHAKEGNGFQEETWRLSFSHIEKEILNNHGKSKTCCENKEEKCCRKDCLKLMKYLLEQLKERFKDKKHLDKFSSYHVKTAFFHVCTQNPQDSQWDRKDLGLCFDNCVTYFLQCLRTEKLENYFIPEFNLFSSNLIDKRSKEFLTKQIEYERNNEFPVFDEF
PROTOCOL: cGAS biochemical activity assay (ATP remaining, Kinase-Glo Max luminescence)
PARTICULARS: human cGAS 155-522, ATP remaining (Kinase-Glo Max); read-out: cGAS IC50

{"COMPOUND": "Cc1nc(NC(=O)c2c(C)[nH]c3c(-c4ccccc4)c(C(F)(F)F)nn3c2=O)oc1C [Compound A1056]", "IC50": "< 20 µM"}
{"COMPOUND": "COC1CCCCC1NC(=O)c1c(C)[nH]c2c(-c3ccccc3)c(C(F)(F)F)nn2c1=O (single isomer, unassigned) [Compound A1085]", "IC50": "20 to 250 µM"}
{"COMPOUND": "COc1cccc(NC(=O)c2c(C)[nH]c3c(-c4ccccc4)c(C(F)(F)F)nn3c2=O)c1Cl [Compound A1135]", "IC50": "< 20 µM"}
{"COMPOUND": "Cc1[nH]c2c(-c3ccccc3)c(C(F)(F)F)nn2c(=O)c1-c1nnc(C2CCCN(S(C)(=O)=O)C2)o1 (stereo not shown) [Compound D1040]", "IC50": "< 20 µM"}
